Recorded values, source ChEMBL document CHEMBL5038640.

experiment: Aqueous solubility of the compound in saline
Assay type: physicochemical
Classification field: met = solubility at or over 1000 µM; not met = solubility under 1000 µM.

Decide: is the reported value of solubility for COc1ccc2cc3[n+](cc2c1OCC(O)Cn1cnnc1)CCc1cc2c(cc1-3)OCO2.[Br-] (stereo not drawn) equal to or greater than 1000 µM?
met

# check: solubility of COc1ccc2cc3[n+](cc2c1OCC(O)CSc1nc2ccccc2[nH]1)CCc1cc2c(cc1-3)OCO2.[Br-] (stereo not drawn) is greater than or equal to 1000 µM
not met

Evaluate COc1ccc2cc3[n+](cc2c1OCC(O)CN(CCO)CCO)CCc1cc2c(cc1-3)OCO2.[Br-] (stereo not drawn) : solubility at minimum 1000 µM?
met

Is solubility for COc1ccc2cc3[n+](cc2c1OCC(O)CN1CCCC1)CCc1cc2c(cc1-3)OCO2.[Br-] (stereo not drawn) at or above 1000 µM?
met

Check this compound for solubility at or above 1000 µM: COc1ccc2cc3[n+](cc2c1OCC(O)CN1CCOCC1)CCc1cc2c(cc1-3)OCO2.[Br-] (stereo not drawn)
met

Kindly determine if solubility recorded for COc1ccc2cc3[n+](cc2c1OC)CCc1cc2c(cc1-3)OCO2 is above or exactly 1000 µM.
not met

State whether the measured solubility reaches 1000 µM, counting equality as reaching it, for COc1ccc2cc3[n+](cc2c1OCC(O)CN1CCCCC1)CCc1cc2c(cc1-3)OCO2.[Br-] (stereo not drawn)
met

Exam item: decide whether the reported solubility for COc1ccc2cc3[n+](cc2c1OCC(O)Cn1ccnc1)CCc1cc2c(cc1-3)OCO2.[Br-] (stereo not drawn) is at least 1000 µM.
met
